target: PDE10A (UniProt Q9Y233); test: Measurement of PDE activity (HTRF cAMP kit, recombinant PDE10A); type: biochemical, human, rat and mouse; details: substrate 20 nM, 60 minutes at 29° C.
Structures can show the parent of a compound that is named as a salt.
molecules and their reported IC50

Cc1ncc(-c2csc3c(-c4ccncc4)nn(CC(F)(F)F)c(=O)c23)cn1 ... 200 to 500 nM
COc1cccc(-c2nn(C)c(=O)c3c(-c4ccncc4)csc23)c1 ... 100 to 200 nM
Cn1nc(OCc2ccc3c(c2)CNC3)c2scc(-c3ccncc3)c2c1=O [Example 126, bis(trifluoroacetate)] ... 200 to 500 nM
Cn1nc(OC2Cc3ccccc3C2)c2scc(-c3ccncc3)c2c1=O [Example 60, trifluoroacetate] ... 200 to 500 nM
Cn1nc(OCc2ccccc2)c2scc(-c3ccncc3)c2c1=O ... 100 to 200 nM

# IC50 (molecule: "Cn1nc(OCc2ccco2)c2scc(-c3ccncc3)c2c1=O" ) is 100 to 200 nM

# IC50 (molecule: "O=c1c2c(-c3ccncc3)csc2c(-c2ccncc2)nn1CC(F)(F)F" ) is < 100 nM

# IC50 (molecule: "Cn1nc(OCc2nc3ccccc3n2C)c2scc(-c3ccncc3)c2c1=O" ) is < 100 nM

----------
molecular target: PDE10A (UniProt Q9Y233); experiment: Measurement of PDE activity (HTRF cAMP kit, recombinant PDE10A); type: biochemical, human, rat and mouse; settings: substrate 20 nM, 60 minutes at 29° C.
pIC50: −log10 of the molar value. Counter-ions that a name gives are not always drawn.
compounds and their reported pIC50

These recorded examples may help you get a feel for the data.
Cn1nc(Oc2ccccc2)c2scc(-c3ccncc3)c2c1=O ... 6.30 to 6.70
COc1cc(OC)cc(-c2nn(C)c(=O)c3c(-c4ccncc4)csc23)c1 [Example 111, trifluoroacetate] ... 6.70 to 7.00

# pIC50 (compound: "COc1ccc(-c2nn(C)c(=O)c3c(-c4ccncc4)csc23)cc1" ) is > 7.00

# pIC50 (compound: "Cn1nc(OCc2nccs2)c2scc(-c3ccncc3)c2c1=O" ) is > 7.00

----------
molecular target: PDE10A (UniProt Q9Y233); assay: Measurement of PDE activity (HTRF cAMP kit, recombinant PDE10A); assay type: biochemical, human, rat and mouse; conditions: substrate 20 nM, 60 minutes at 29° C.
Where a name gives a salt, the structure may show the parent alone.
measurement-label: IC50

These recorded examples may help you get a feel for the data.
COc1cccc(Oc2nn(C)c(=O)c3c(-c4ccncc4)csc23)c1 [Example 85] ... 100 to 200 nM
Cn1nc(-c2cccc(C#N)c2)c2scc(-c3ccncc3)c2c1=O [Example 94] ... 100 to 200 nM
Cn1nc(-c2cccc(O)c2)c2scc(-c3ccncc3)c2c1=O [Example 107] ... < 100 nM
COc1cc(OC)cc(Oc2nn(C)c(=O)c3c(-c4ccncc4)csc23)c1 [Example 92] ... < 100 nM

# IC50 (compound: CCn1nc(-c2ccncc2)c2scc(-c3ccncc3)c2c1=O [Example 136] ) is < 100 nM

# IC50 (compound: Cn1nc(-c2cnn(CC(F)(F)F)c2)c2scc(-c3ccncc3)c2c1=O [Example 100] ) is < 100 nM

# IC50 (compound: Cn1nc(-c2ccncc2)c2scc(NC3COC3)c2c1=O [Example 2] ) is 200 to 500 nM

# IC50 (compound: COc1ccccc1-c1nn(C)c(=O)c2c(-c3ccncc3)csc12 [Example 113, trifluoroacetate] ) is 200 to 500 nM

# IC50 (compound: Cn1nc(OCc2cccc3ccoc23)c2scc(-c3ccncc3)c2c1=O [Example 64] ) is 100 to 200 nM

----------
target: PDE10A (UniProt Q9Y233); assay: Measurement of PDE activity (HTRF cAMP kit, recombinant PDE10A); format: biochemical, human, rat and mouse; conditions: substrate 20 nM, 60 minutes at 29° C.
Structures can show the parent of a compound that is named as a salt.
compounds and their reported IC50

These recorded examples may help you get a feel for the data.
Cn1nc(Oc2ccccc2C#N)c2scc(-c3ccncc3)c2c1=O.O=C(O)C(F)(F)F [Example 83, trifluoroacetate] ... 100 to 200 nM
COc1cncc(Oc2nn(C)c(=O)c3c(-c4ccncc4)csc23)c1.O=C(O)C(F)(F)F.O=C(O)C(F)(F)F [Example 88, bis(trifluoroacetate)] ... < 100 nM
Cn1nc(-c2ccncc2)c2scc(-c3cncnc3)c2c1=O ... < 100 nM
Cn1nc(-c2cccc(C(F)(F)F)c2)c2scc(-c3ccncc3)c2c1=O [Example 114, trifluoroacetate] ... 100 to 200 nM

# IC50 (compound: COCCn1cc(-c2nn(C)c(=O)c3c(-c4ccncc4)csc23)cn1.O=C(O)C(F)(F)F.O=C(O)C(F)(F)F [Example 99, bis(trifluoroacetate)] ) is < 100 nM

# IC50 (compound: "Cn1nc(Oc2ccc3c(c2)OCO3)c2scc(-c3ccncc3)c2c1=O" ) is 200 to 500 nM

# IC50 (compound: "Cn1nc(Oc2cccnc2)c2scc(-c3ccncc3)c2c1=O" ) is 200 to 500 nM

# IC50 (compound: Cc1cc(-c2nn(C)c(=O)c3c(-c4ccncc4)csc23)ccn1 [Example 120, bis(trifluoroacetate)] ) is < 100 nM

# IC50 (compound: "Cn1nc(OCc2coc3ccccc23)c2scc(-c3ccncc3)c2c1=O" ) is 100 to 200 nM

# IC50 (compound: Cn1nc(OCc2nc3ccccc3s2)c2scc(-c3ccncc3)c2c1=O [Example 71, trifluoroacetate] ) is < 100 nM

----------
molecular target: PDE10A (UniProt Q9Y233); assay: Measurement of PDE activity (HTRF cAMP kit, recombinant PDE10A); format: biochemical, human, rat and mouse; settings: substrate 20 nM, 60 minutes at 29° C.
Counter-ions that a name gives are not always drawn.
measurement-label: IC50

# IC50 (compound: O=c1c2c(-c3cncnc3)csc2c(-c2ccncc2)nn1CC1CC1 [Example 146] ) is < 0.1 µM

# IC50 (compound: Cn1nc(OCc2cccc(C#N)c2)c2scc(-c3ccncc3)c2c1=O.O=C(O)C(F)(F)F [Example 59, trifluoroacetate] ) is < 0.1 µM

# IC50 (compound: Cn1nc(-c2cccc(Cl)c2)c2scc(-c3ccncc3)c2c1=O [Example 105, trifluoroacetate] ) is 0.2 to 0.5 µM

# IC50 (compound: Cc1ccc(-c2nn(C)c(=O)c3c(-c4ccncc4)csc23)cc1 [Example 121, trifluoroacetate] ) is 0.1 to 0.2 µM

----------
molecules and their reported IC50
target: PDE10A (UniProt Q9Y233); experiment: Measurement of PDE activity (HTRF cAMP kit, recombinant PDE10A); type: biochemical, human, rat and mouse; details: substrate 20 nM, 60 minutes at 29° C.
Where a name gives a salt, the structure may show the parent alone.

These recorded examples may help you get a feel for the data.
Cn1nc(-c2ccncc2)c2scc(-c3cccnc3)c2c1=O.O=C(O)C(F)(F)F [Example 14, bis(trifluoroacetate)] ... 100 to 200 nM
Cn1nc(-c2cccc(F)c2)c2scc(-c3ccncc3)c2c1=O [Example 116, trifluoroacetate] ... 200 to 500 nM
Cn1nc(-c2ccccc2F)c2scc(-c3ccncc3)c2c1=O [Example 115, trifluoroacetate] ... 200 to 500 nM

# IC50 (molecule: CN(C)c1cccc(-c2nn(C)c(=O)c3c(-c4ccncc4)csc23)c1 [Example 119, bis(trifluoroacetate)] ) is < 100 nM

# IC50 (molecule: Cn1nc(-c2ccncc2)c2scc(N3CCOCC3)c2c1=O [Example 3] ) is 200 to 500 nM

# IC50 (molecule: Cn1nc(NCc2ccccc2)c2scc(-c3ccncc3)c2c1=O.O=C(O)C(F)(F)F.O=C(O)C(F)(F)F [Example 50, bis(trifluoroacetate)] ) is 100 to 200 nM

# IC50 (molecule: COc1ccc(Oc2nn(C)c(=O)c3c(-c4ccncc4)csc23)cc1 [Example 86] ) is 200 to 500 nM

----------
target: PDE10A (UniProt Q9Y233); experiment: Measurement of PDE activity (HTRF cAMP kit, recombinant PDE10A); format: biochemical, human, rat and mouse; settings: substrate 20 nM, 60 minutes at 29° C.
Where a name gives a salt, the structure may show the parent alone.
measurement-label: IC50

These recorded examples may help you get a feel for the data.
CC(Oc1nn(C)c(=O)c2c(-c3ccncc3)csc12)c1nc2ccccc2n1C (stereo not shown) ... < 100 nM
COc1ccccc1Oc1nn(C)c(=O)c2c(-c3ccncc3)csc12.O=C(O)C(F)(F)F [Example 84, trifluoroacetate] ... 100 to 200 nM

# IC50 (compound: "CCCn1nc(-c2ccncc2)c2scc(-c3ccncc3)c2c1=O" ) is 100 to 200 nM

# IC50 (compound: COc1ccc(-c2nn(C)c(=O)c3c(-c4ccncc4)csc23)cc1OC [Example 102, trifluoroacetate] ) is < 100 nM
